# TARGET OR TEST SYSTEM: T1, Bfl-1, Q16548
# T1 chain: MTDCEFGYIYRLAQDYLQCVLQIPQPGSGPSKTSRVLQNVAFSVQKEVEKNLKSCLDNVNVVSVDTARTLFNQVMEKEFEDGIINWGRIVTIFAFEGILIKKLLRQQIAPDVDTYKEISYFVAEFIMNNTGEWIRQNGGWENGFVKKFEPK
# PROTOCOL SUMMARY: peptide SPOT array, c-Myc-tagged receptor at 1 uM or 100 nM, anti-c-Myc-Cy3
Answer n if SPOT signal as a fraction of Bim BH3's signal on the same receptor and array is under 0.08, and y if it is 0.08 or more.

-- ask Entry GYPFNDVCQWFIDRLDLIFVVFDPTK [SRL] : is its SPOT signal as a fraction of Bim BH3's signal on the same receptor and array no less than 0.08?
-- reply n

-- ask Entry MQTLSELAKSFQDMLDRCLLVLHLEV [EXOC4] : is its SPOT signal as a fraction of Bim BH3's signal on the same receptor and array no less than 0.08?
-- reply n

-- ask Entry GGRVKLVHSADIQLGDSLSHKGNEFW [WDR60] : is its SPOT signal as a fraction of Bim BH3's signal on the same receptor and array no less than 0.08?
-- reply y

-- ask Entry TVATRRLSGFDRTLADRLEGTKELLS [MINA] : is its SPOT signal as a fraction of Bim BH3's signal on the same receptor and array no less than 0.08?
-- reply y

-- ask Entry NWFGDWSTEALYQVGKEFTSKMDLEK [DYNC1H1] : is its SPOT signal as a fraction of Bim BH3's signal on the same receptor and array no less than 0.08?
-- reply n

-- ask Entry MRPEIWIAQELRRILDEFNAYYARRV [BCL2L11] : is its SPOT signal as a fraction of Bim BH3's signal on the same receptor and array no less than 0.08?
-- reply n

-- ask Entry VHKHSRLAEVLQLGLDILPQYKQEAP [KCNH1] : is its SPOT signal as a fraction of Bim BH3's signal on the same receptor and array no less than 0.08?
-- reply n

-- ask Entry EGTKIVLGKQLIESADEVRRKSLVLK [TAF1] : is its SPOT signal as a fraction of Bim BH3's signal on the same receptor and array no less than 0.08?
-- reply y

-- ask Entry SKEVAILCSFLLGLLDSCFNTQLLSI [MFSD11] : is its SPOT signal as a fraction of Bim BH3's signal on the same receptor and array no less than 0.08?
-- reply n
